Recorded IC50 by entry
measuredOn: LCK (Homo sapiens)
Sequence (P06239 whole entry): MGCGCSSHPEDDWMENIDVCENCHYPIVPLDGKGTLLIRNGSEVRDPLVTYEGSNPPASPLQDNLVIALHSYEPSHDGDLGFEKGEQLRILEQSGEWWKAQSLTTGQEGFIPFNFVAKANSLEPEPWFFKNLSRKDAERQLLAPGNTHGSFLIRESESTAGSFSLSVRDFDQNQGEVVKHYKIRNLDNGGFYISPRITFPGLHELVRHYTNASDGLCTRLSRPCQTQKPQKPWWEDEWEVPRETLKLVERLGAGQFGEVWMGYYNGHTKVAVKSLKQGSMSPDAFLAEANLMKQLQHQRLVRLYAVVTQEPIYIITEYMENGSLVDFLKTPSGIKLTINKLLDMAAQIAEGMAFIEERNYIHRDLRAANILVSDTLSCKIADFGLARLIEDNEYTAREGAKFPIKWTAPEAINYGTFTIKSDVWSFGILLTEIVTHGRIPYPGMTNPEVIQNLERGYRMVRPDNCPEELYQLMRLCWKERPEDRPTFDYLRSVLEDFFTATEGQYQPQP
assay: Inhibition of a panel of kinases, in vitro HotSpot kinase assay: LCK
Format: biochemical
conditionDescription: D-compounds panel data; 1 μM ATP; read-out: IC50 LCK

Solved cases below.
- molecule: "C[C@@H]1[C@H](NC(=O)N(C)C)CCCN1c1cnc(C(N)=O)c(Nc2ccc3cccnc3c2)n1 [Example D-121]"
  measuredOn: "LCK (Homo sapiens)"
  quantityName: "IC50"
  result: "100 to 1000 nM"
- molecule: "CC1COc2cc(C(=O)N[C@@H]3CCCN(c4cnc(C(N)=O)c(Nc5cnn(C)c5)n4)[C@@H]3C)ccc2C1 (stereo partly drawn) [Example D-56]"
  measuredOn: "LCK (Homo sapiens)"
  quantityName: "IC50"
  result: "10 to 100 nM"
- molecule: "C[C@@H]1[C@H](NC(=O)c2ccc(C(C)(O)C(F)(F)F)cc2)CCCN1c1cnc(C(N)=O)c(Nc2cnn(C)c2)n1 (single isomer, unassigned) [Example D-214]"
  measuredOn: "LCK (Homo sapiens)"
  quantityName: "IC50"
  result: "10 to 100 nM"

Give LCK (Homo sapiens) IC50 for C[C@@H]1[C@H](NC(=O)c2ccc(C3(C(F)(F)F)CC3)cc2)CCCN1c1cnc(C(N)=O)c(Nc2cnn(C)c2)n1 [Example D-221] 100 to 1000 nM
